- Test system: HT-1080 cells
- EXPERIMENT: HT-1080 cell viability assay (ferroptosis induced by RSL3, Cell Titer-Glo)
- Format: cell-based
- CONDITION PARAMETERS: Homo sapiens, HT-1080, 20 h, ferroptosis inducer RSL3, 20 hours, ferroptosis inhibitory activity, Table 2
pEC50: −log10 of the molar value.
Please respond with reported pEC50 for every item in the list.

Lookup: Please report the recorded pEC50 for Cc1nc(N2CCC3(CC2)COC3)ccc1NC1CC2(CC(N)C2)C1 (stereo not shown) .
Found: 5.00 to 6.00

Lookup: Also need N[C@H]1CC[C@H](CCNc2ccc(N3CCC(C(F)(F)F)CC3)cc2F)CC1 , thanks.
Found: 7.00 to 10.00

Lookup: Please give the result for COc1cc(N2CC(C)OC(C)C2)ccc1NC[C@H]1CC[C@H](N)CC1 (stereo partly shown) too.
Found: 7.00 to 10.00

Lookup: And CC(C)C1CCN(c2ncc(NC3C4CC5CC3CC(C(N)=O)(C5)C4)cn2)CC1 (stereo not shown) ?
Found: 7.00 to 10.00

Lookup: Now the same for NC1CCC(Nc2cnc(N3CC4(CCC4)C3)nc2)CC1 (stereo not shown)
Found: 6.00 to 7.00

Lookup: Please give the result for CC1CN(c2cc(F)c(NC[C@H]3CC[C@H](N)CC3)cc2F)CC(C)O1 (stereo partly shown) too.
Found: 6.00 to 7.00

Lookup: Also need CC1(C)CCC(c2ccc(NC3CCS(=O)(=O)CC3)cc2)CC1 , thanks.
Found: 6.00 to 7.00

Lookup: Item: CC1(C)CCC(c2ccc(NC3CCC(NC(N)=O)CC3)cc2)CC1 (stereo not shown)
Found: 6.00 to 7.00

Lookup: # repeat for NC1CCC(Nc2cccc(N3CCC(C(F)(F)F)CC3)c2)CC1 (stereo not shown)
Found: 6.00 to 7.00

Lookup: NC1CCC(Nc2cccc3ccccc23)CC1 (stereo not shown) ?
Found: 7.00 to 10.00

Lookup: Ok, now NC[C@@H]1CCC(Nc2ccc(N3CCC(C(F)(F)F)CC3)cc2)[C@@H](N)C1 (stereo partly shown) [Compound 503, bis(2,2,2-trifluoroacetate)]
Found: 7.00 to 10.00

Lookup: Similarly, Cc1nc(N2CCC(C(F)(F)F)CC2)ccc1NC[C@H]1CC[C@H](NC(=O)C2CNC(=O)C2)CC1 (stereo partly shown) ?
Found: 7.00 to 10.00

Lookup: Try this compound next: CC(C)(C)c1ccc(NC2CCC(CNC(=N)N)CC2)cc1 (stereo not shown)
Found: 7.00 to 10.00

Lookup: Same for CC1(C)CCCc2cc(NC3CCC(N)CC3)ccc21 (stereo not shown) [Compound 337A]
Found: 7.00 to 10.00

Lookup: Further, for Cc1nc(N(C)CC(F)(F)F)ccc1NC1CC2(CC(N)C2)C1 (stereo not shown) ?
Found: 7.00 to 10.00

Lookup: Now the compound CC1(N)CCC(Nc2ccc3c(c2)CCCC3)CC1 (stereo not shown)
Found: 7.00 to 10.00

Lookup: And then CC1(C)CCC(c2ccc(NC3CCC(NS(N)(=O)=O)CC3)cc2)CC1 (stereo not shown) , what is it?
Found: 7.00 to 10.00

Lookup: Another: CC(C)C1CCN(c2ncc(NC3CC4(CC(NC(=O)C(N)=O)C4)C3)cn2)CC1 (stereo not shown)
Found: 7.00 to 10.00

Lookup: Again, but for Cc1nc(N2CC(C)N(CC(F)(F)F)C(C)C2)ccc1NC1CC2(CC(N)C2)C1 (stereo not shown)
Found: 7.00 to 10.00

Lookup: Now this one: CC1CC(C)CN(c2ccc(NC[C@H]3CC[C@H](N)CC3)cc2)C1 (stereo partly shown)
Found: 7.00 to 10.00

Lookup: Follow-up item: CCCC(CCC)Nc1ccc(C(C)(C)C)cc1
Found: 6.00 to 7.00

Lookup: How about NC1CCC(Nc2ccc(Br)cc2)CC1 (stereo not shown) ?
Found: 5.00 to 6.00

Lookup: Now this one: Cc1nc(N2CC(C)OC(C)C2)ccc1NC1C2CC3CC1CC(CN)(C3)C2 (stereo not shown) [Compound 475A]
Found: 7.00 to 10.00

Lookup: Next up: NC1CCC(Nc2ccc(N3CCC(C(F)(F)F)CC3)cc2OCCO)CC1 (stereo not shown)
Found: 7.00 to 10.00

Lookup: Consider next the compound NCC1CCC(Nc2ccc3c(c2)CCC3)CC1 (stereo not shown) in the same way.
Found: 7.00 to 10.00

Lookup: Try Cc1nc(N2CCC(C(F)(F)F)CC2)ccc1NC[C@H]1CC[C@H](N)CC1 next.
Found: 7.00 to 10.00

Lookup: Cool, now CCCCCN(CC)c1ccc(NC[C@H]2CC[C@H](N)CC2)cc1
Found: 7.00 to 10.00

Lookup: What do you get for CC(C)(C)c1ccc(NC2CCC(N)(CO)CC2)cc1 (single isomer, unassigned) [Compound 213A] ?
Found: 6.00 to 7.00

Lookup: Try this compound next: CNCC1CCC(Nc2ccc(C(C)(C)C)cc2)CC1 (stereo not shown)
Found: 7.00 to 10.00

Lookup: Also need NC1CCC(Nc2ccc(C3CCCCC3)cc2)CC1 (stereo not shown) , thanks.
Found: 7.00 to 10.00

Lookup: # repeat for CC(C)(C)c1ccc(NCc2cnc[nH]2)cc1
Found: 6.00 to 7.00

Lookup: Another compound to look at: CC1(C)CCC(c2ccc(NC3CCC(O)CC3)cc2)CC1 (single isomer, unassigned) [Compound 205A]
Found: 7.00 to 10.00

Lookup: Next compound up: CC(C)c1ccc(NC2CCC(N)CC2)cc1 (stereo not shown)
Found: 6.00 to 7.00

Lookup: And CC1CC(c2ccc(NC3CCC(N)CC3)cc2)CC(C)O1 (stereo not shown) ?
Found: 6.00 to 7.00

Lookup: And the next one, CC(C)(C)c1ccc(NC2CCC(CNCCO)CC2)cc1 (stereo not shown) ?
Found: 7.00 to 10.00

Lookup: Also NC1CCC(Nc2ccc(N3CCC(C(F)(F)F)CC3)cc2F)CC1 (stereo not shown) , if possible.
Found: 7.00 to 10.00

Lookup: Now consider NC1CCC(Nc2ccc3c(c2)CCC3)CC1 (stereo not shown) .
Found: 6.00 to 7.00
